Catalogue of Total Cell Count readings, one per entry.
test system: U2OS; experiment: Multiplex assay against U2OS; assay type: toxicity, cell-based; conditions: human, 24 h, 10 µM, compound concentration 10 uM, replicate 2
property-name: Total Cell Count

1) OCCCNc1cc(-c2ccnc(Nc3cccc(Cl)c3)n2)ccn1 = 128
2) Cn1cc(C(=O)OCC2CCN(CCNS(C)(=O)=O)CC2)c2ccccc21 = 150
3) CC(C)C[C@H](CO)Nc1nc(S[C@@H](C)c2ccccc2)nc2nc(N)sc12 = 156
4) S=C(NCCCc1c[nH]cn1)NCCCN(Cc1ccc(Cl)c(Cl)c1)c1ccc(Br)cn1 = 79
5) COc1c(Nc2ccc(S(C)(=O)=O)nc2C)ncnc1OC1CCN(C(=O)OC(C)C)CC1 = 155
6) Nc1nc(-c2ccco2)c2cnn(Cc3ccccc3F)c2n1 = 157
7) COCCn1c(C)c(C)s/c1=N\C(=O)C1C(C)(C)C1(C)C = 141
8) COc1cc(C(=O)N2CC[C@@H](O)[C@@H](N)C2)cc2nc(-c3cc4ccccc4n3CC3CC3)n(C)c12.Cl = 133
9) O=c1nc2[nH]c3ccccc3nc-2c(=O)[nH]1 = 148
10) CCc1nn2c(C)cc(C)nc2c1Cc1ccc(-c2nnc(C3CCNCC3)o2)cc1 = 163
11) COc1cc2nc(N3CCN(C(=O)c4ccco4)CC3)nc(N)c2cc1OC.Cl [PRAZOSIN HYDROCHLORIDE] = 138
12) COc1cc(OC2CCN(C(C)=O)CC2)ccc1C(=O)N1CCC(N2C(=O)OCc3ccccc32)CC1 = 99
